# kc per record follows
Experiment Notes: Carbamylation rate constant was determined
Reported Metric: kc

>>> recorded_measurement("CCCCNC(=O)OCCCCCCCCCCCCOC(=O)NCCCC")
"4.6 10e-3 1/s"
>>> recorded_measurement("CCCCNC(=O)OCCCCCO")
"3.5 10e-3 1/s"
>>> recorded_measurement("CCCCNC(=O)OCCCCCOC(=O)NCCCC")
"3.3 10e-3 1/s"
>>> recorded_measurement("CCCCNC(=O)OCCCCCCCCCCCCCCCCO")
"4.9 10e-3 1/s"
>>> recorded_measurement("CCCCNC(=O)OCCCCCCCCCCCCCCCCOC(=O)NCCCC")
"5.3 10e-3 1/s"

Data origin: ChEMBL document CHEMBL1141982
